# metabolised at 1 h, 50 µM listing for each entry below
# Assay Method Text: Drug metabolism in human liver microsomes assessed as compound turnover at 50 uM incubated for 60 mins by HPLC and LC-MS/Ms method
# Assay type: ADME, Microsome
# Measurement Conditions: read-out: Drug metabolism
Quantity Name: metabolised at 1 h, 50 µM (%)

>>> measurement("NC(=O)N1c2ccccc2C=Cc2ccccc21 [CARBAMAZEPINE]")
1
>>> measurement("NC(=O)N1c2ccc(F)cc2C=Cc2cc(F)ccc21")
1

====

# Tested on: Hepatocyte
# Assay Method Text: Drug metabolism in Wistar rat hepatocytes assessed as ratio of N-glucuronide metabolite level to parent compound level at 50 uM incubated for 6 hrs by HPLC and LC-MS/Ms method
# Format: ADME, cell-based
List of Ratio values.
Quantity Name: Ratio

>>> measurement("NC(=O)N1c2ccc(Br)cc2C=Cc2cc(Br)ccc21")
0.27
>>> measurement("NC(=O)N1c2ccccc2C=Cc2cc(Cl)ccc21")
2.04
>>> measurement("NC(=O)N1c2ccc(Cl)cc2C=Cc2cc(Cl)ccc21")
0.22
>>> measurement("NC(=O)N1c2ccccc2C=Cc2ccccc21 [CARBAMAZEPINE]")
0.63
>>> measurement("NC(=O)N1c2ccc(F)cc2C=Cc2cc(F)ccc21")
0.18
>>> measurement("NC(=O)N1c2ccccc2C=Cc2cc(F)ccc21")
0.784

// provenance: ChEMBL document CHEMBL2176913
